measured-target: T1, Activin A (human, UniProt P08476 311-426)
T1 construct: Homodimer of two βA subunits; bought from R&D Systems (#338-AC); also called inhibin-βA dimer; human Activin A
T1 sequence: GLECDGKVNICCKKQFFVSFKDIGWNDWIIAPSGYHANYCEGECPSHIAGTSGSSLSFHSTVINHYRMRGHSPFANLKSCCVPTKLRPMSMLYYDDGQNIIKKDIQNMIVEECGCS
protocol: SPR, captured mAb, 25C
Give measured kon for each item. Keep answers brief.
Please give the number followed by its unit.

Study these solved cases before continuing.
{"binder": "H4H10429P (antibody, human IgG4, V domains shown) VH: QVQLVESGGGVVQPGRSLRLSCVASGFTVSSYGIHWVRQAPGKGLEWVSVIWYDGRNKDYADSVKGRFTISRDNSKNTVYLEMKGLRAEDTALYYCARDKTGDFDSWGQGTLVTVSS VL: DIQMTQSPSSLSASVGDRVTITCRASQNINSFLSWYQQKPGKAPKFLIYDASSIQSGAPSRFSGSGSGTDFTLTISSLQPEDFATYYCQQSYSSPFTFGQGTKLEIK", "observed-value": "7.82e+06 M⁻¹ s⁻¹"}
{"binder": "H4H10424P (antibody, human IgG4, V domains shown) VH: QVQLVESGGGVVQPGRSLRLSCAASGFTFSSYGMHWVRQAPGKGLEWVAVIWYDGSNKYNADSVKGRFTISRDNSKNTVYLQMNSLRAEDTAVYYCARARNYDILTGYYNLGMDVWGQGTTVTVSS VL: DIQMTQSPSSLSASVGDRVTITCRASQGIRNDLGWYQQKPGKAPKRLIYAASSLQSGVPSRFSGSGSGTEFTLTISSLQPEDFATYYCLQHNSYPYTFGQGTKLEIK", "observed-value": "3.14e+06 M⁻¹ s⁻¹"}

Hi! Can you tell me kon for each of these binders?
1. H4H10426P (antibody, human IgG4, V domains shown) VH: EVQLVESGGNLVQSGRSLRLSCTASGFAFDDFAMHWVRQVPGKGLEWVSGISWNSDTIGYADSVKGRFTISRDNAQNSLFLQMDSLRAEDTALYYCVKDMVRGLIGYYYYGMDVWGQGTTVTVSS VL: EIVLTQSPAILSLSPGERAILSCRASQSIYTYLSWYQQTPGRAPRLLIYETSSRATGIPARFIGSGSGTDFTLTISSLEPEDFAFYYCQHRSDWPPTFGQGTKLEIK
2. H4H10430P (antibody, human IgG4, V domains shown, also called H4H1430P; H4H10430P2) VH: EVQLVESGGGLVQPGRSLRLSCKASGFAFDDFAMHWVRQAPGKGLEWVSGIVWNSGDIGYADSVKGRFTISRDNAKNSLYLQLNSLRTEDTALYFCVKDMVRGLMGFNYYGMDVWGQGTTVTVSS VL: EIVLTQSPATLSLSPGERATLSCRASQTISTYLVWYRQRPGQAPSLLIYDASNRATDIPARFSGSGSGTDFTLTISSLEPEDFAVYYCQQRSNWPITFGQGTRLEIK

Result:
1: 1.18e+07 M⁻¹ s⁻¹; 2: 4.75e+07 M⁻¹ s⁻¹
